Cited source: patent US10399945B2

Measured IC50 values are reported for all entries that follow.
# tested_on: Human TrkA Protein (Homo sapiens (Human))
# Sequence (P04629 33-796): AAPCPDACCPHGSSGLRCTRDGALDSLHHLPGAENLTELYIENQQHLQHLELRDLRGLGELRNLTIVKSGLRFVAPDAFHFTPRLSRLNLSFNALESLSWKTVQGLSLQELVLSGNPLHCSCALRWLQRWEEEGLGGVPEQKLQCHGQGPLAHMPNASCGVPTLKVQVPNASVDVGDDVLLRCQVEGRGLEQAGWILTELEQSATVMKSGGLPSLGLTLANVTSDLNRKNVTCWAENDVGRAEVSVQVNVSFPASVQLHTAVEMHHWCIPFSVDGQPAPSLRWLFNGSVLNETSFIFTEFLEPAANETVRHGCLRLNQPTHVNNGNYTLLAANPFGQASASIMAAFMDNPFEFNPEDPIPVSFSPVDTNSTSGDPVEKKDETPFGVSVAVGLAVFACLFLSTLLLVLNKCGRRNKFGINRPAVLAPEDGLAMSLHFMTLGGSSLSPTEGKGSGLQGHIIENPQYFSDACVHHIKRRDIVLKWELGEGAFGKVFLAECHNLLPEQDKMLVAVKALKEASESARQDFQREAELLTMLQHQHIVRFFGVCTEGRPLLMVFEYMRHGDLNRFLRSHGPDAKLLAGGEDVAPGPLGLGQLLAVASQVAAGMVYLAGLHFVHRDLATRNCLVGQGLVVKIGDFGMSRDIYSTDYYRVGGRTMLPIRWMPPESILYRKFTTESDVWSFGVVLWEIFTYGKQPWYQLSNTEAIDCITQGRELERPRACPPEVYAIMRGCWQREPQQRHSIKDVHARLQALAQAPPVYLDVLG

Cc1ncc(-c2nc(-c3ccccc3)c(NC(=O)N[C@@H]3c4ccccc4C(C)(C)C[C@H]3O)cc2C)cn1; ≤ 50 nM

Turning now to a further compound:
Enquiry: API: value(readout= IC50, system= Human TrkA Protein (Homo sapiens (Human)), query= Cc1cc(NC(=O)N[C@@H]2c3ccccc3C(C)(C)C[C@H]2O)c(-c2ccccc2)nc1-c1cnc(O)nc1 )
Return: ≤ 50 nM

====

What follows is a collection of IC50 values obtained with Human TrkA Protein (Homo sapiens (Human)).

Enquiry: Which IC50 value is on record for Cc1nnc(CNC(=O)c2nc(-c3ccccc3)c(NC(=O)N[C@@H]3c4cc(F)c(F)cc4C(C)(C)C[C@H]3O)cc2C)o1 (racemic) [Compound 41a] ?
Return: ≤ 50 nM

Enquiry: // IC50 lookup, key: Cc1cc(NC(=O)N[C@@H]2c3ccccc3C(C)(C)C[C@H]2O)c(-c2ccccc2)nc1-c1cncc(C(F)(F)F)c1
Return: ≤ 50 nM

Enquiry: Which IC50 reading was recorded for the molecule Cc1cc(NC(=O)N[C@@H]2c3ccc(Br)cc3C(C)(C)C[C@H]2O)c(-c2ccccc2)nc1C(N)=O (racemic) ?
Return: ≤ 50 nM

Enquiry: Which IC50 reading was recorded for the molecule Cc1cc(NC(=O)N[C@@H]2c3cc(F)c(F)cc3C(C)(C)C[C@H]2O)c(C2CCOCC2)nc1-c1cn[nH]c1 (racemic) [Compound 61a] ?
Return: 50 to 1000 nM
